Test system: CCRFCEM
Procedure Details: Solid tumour and haematological malignancy assay (CellTiterGlo)
Assay type: cell-based
Measurement Setup: Homo sapiens, CCRF-CEM, 72 h, read-out: IC50 (absolute IC50)
Observation Type: IC50

{"Compound": "COC(=O)C(C)(C)NP(=O)(OC[C@@H]1C[C@@H](O)[C@H](n2cnc3c(N)ncnc32)O1)Oc1cccc2ccccc12 (stereo partly shown) [E]", "Result": "100 to 5000 nM"}
{"Compound": "C[C@H](NP(=O)(OC[C@@H]1C[C@@H](O)[C@H](n2cnc3c(N)ncnc32)O1)Oc1cccc2ccccc12)C(=O)OCc1ccccc1 (stereo partly shown) [B]", "Result": "100 to 5000 nM"}
{"Compound": "C[C@H](NP(=O)(OC[C@@H]1CC(O)[C@H](n2cnc3c(N)ncnc32)O1)Oc1ccccc1)C(=O)OCc1ccccc1 (stereo partly shown) [Compound A]", "Result": "100 to 5000 nM"}
{"Compound": "CCCCCCOC(=O)[C@H](C)NP(=O)(OC[C@@H]1C[C@@H](O)[C@H](n2cnc3c(N)nc(F)nc32)O1)Oc1ccccc1 (stereo partly shown) [R]", "Result": "100 to 5000 nM"}
{"Compound": "C[C@H](NP(=O)(OC[C@@H]1C[C@H](O)[C@H](n2cnc3c(N)nc(F)nc32)O1)Oc1cccc2ccccc12)C(=O)OCc1ccccc1 (stereo partly shown) [Compound O]", "Result": "100 to 5000 nM"}
{"Compound": "C[C@H](NP(=O)(OC[C@@H]1C[C@@H](O)[C@H](n2cnc3c(N)nc(F)nc32)O1)Oc1ccccc1)C(=O)OCc1ccccc1 (mixture of isomers) [P]", "Result": "100 to 5000 nM"}
{"Compound": "CCOC(=O)CCc1ccccc1OP(=O)(N[C@@H](C)C(=O)OCc1ccccc1)OC[C@@H]1C[C@@H](O)[C@H](n2cnc3c(N)ncnc32)O1 (stereo partly shown) [F]", "Result": "100 to 5000 nM"}
